Attribution: patent US12065436B2

- system_tested: bovine cardiac myofibrils (full-length cardiac myosin ATPase in the native sarcomere) (Bos taurus (Bovine), UniProt Q9BE39)
- Sequence (Q9BE39 whole entry): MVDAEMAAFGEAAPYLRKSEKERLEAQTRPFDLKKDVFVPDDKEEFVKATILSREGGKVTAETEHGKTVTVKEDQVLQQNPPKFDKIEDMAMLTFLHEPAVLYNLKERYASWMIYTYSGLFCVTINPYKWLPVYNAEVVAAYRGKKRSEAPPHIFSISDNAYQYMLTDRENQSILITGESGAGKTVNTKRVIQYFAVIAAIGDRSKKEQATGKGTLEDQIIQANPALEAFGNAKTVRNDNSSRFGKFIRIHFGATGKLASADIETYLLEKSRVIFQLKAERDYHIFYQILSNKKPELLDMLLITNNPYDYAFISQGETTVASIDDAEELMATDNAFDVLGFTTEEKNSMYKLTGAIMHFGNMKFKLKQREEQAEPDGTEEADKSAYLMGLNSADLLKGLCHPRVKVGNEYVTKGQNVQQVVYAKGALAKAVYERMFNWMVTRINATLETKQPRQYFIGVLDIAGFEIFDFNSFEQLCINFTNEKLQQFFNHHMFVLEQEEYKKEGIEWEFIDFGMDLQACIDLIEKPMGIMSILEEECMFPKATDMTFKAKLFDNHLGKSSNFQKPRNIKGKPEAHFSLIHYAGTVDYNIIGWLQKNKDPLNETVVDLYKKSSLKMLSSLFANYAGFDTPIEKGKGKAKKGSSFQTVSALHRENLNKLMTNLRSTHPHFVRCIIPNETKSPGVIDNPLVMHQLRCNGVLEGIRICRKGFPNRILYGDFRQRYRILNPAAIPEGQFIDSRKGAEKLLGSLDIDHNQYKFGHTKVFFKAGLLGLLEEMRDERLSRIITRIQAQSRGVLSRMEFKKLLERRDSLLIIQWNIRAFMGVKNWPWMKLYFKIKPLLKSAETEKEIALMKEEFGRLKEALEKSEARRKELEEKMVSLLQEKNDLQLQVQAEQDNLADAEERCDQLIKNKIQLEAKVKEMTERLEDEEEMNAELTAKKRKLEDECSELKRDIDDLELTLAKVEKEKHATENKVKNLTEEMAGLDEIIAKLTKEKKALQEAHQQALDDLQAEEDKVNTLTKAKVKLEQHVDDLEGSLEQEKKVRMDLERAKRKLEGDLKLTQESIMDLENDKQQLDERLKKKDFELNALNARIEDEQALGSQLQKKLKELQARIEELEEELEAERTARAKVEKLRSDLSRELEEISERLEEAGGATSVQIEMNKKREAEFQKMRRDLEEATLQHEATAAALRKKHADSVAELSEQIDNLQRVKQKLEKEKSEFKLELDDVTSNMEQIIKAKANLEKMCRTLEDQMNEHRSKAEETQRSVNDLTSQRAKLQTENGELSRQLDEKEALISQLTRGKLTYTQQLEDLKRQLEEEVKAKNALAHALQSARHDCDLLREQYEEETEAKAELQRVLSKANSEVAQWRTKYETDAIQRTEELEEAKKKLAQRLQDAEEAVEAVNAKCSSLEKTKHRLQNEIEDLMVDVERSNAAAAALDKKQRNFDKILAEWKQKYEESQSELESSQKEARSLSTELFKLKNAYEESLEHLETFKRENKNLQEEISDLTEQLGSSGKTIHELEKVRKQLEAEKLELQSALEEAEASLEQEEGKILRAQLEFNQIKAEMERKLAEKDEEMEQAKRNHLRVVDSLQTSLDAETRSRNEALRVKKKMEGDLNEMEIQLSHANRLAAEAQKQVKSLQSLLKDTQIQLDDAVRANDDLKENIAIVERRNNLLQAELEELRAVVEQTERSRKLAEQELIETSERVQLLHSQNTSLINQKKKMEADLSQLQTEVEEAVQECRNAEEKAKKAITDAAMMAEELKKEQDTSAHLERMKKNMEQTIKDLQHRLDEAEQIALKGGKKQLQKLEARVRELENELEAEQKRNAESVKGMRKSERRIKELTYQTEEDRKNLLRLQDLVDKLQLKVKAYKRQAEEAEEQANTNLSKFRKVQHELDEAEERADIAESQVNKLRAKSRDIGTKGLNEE
- Sequence (P85100 whole entry partner): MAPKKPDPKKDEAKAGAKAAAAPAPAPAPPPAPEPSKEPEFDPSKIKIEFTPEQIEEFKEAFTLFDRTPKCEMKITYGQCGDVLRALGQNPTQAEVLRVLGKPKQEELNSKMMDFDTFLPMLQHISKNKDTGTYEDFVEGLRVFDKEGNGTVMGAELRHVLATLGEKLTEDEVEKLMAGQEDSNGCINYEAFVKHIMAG
- Sequence (Q3SZE5 whole entry partner): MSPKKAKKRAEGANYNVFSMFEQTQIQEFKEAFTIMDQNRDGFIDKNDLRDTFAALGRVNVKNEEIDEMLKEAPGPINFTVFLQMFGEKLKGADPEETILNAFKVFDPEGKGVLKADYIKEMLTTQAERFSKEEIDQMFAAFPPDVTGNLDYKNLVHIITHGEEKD
- assay_remarks: Skinned bovine cardiac myofibril ATPase assay (PK/LDH-coupled)
- Type: biochemical
- test_conditions: Ca2+ activating to 75% of maximal rate, concentration giving 15% inhibition
parameter_measured: CDMF75 IC15 (µM)
Response body: numeric value in µM, unit text excluded.

Past entries and their recorded results:
{"molecule": "COCc1nc(-c2ccc3c(c2)CC[C@H]3NC(=O)c2cccc(C(C)O)c2)no1 (some centres unmarked) [Compound 722]", "CDMF75 IC15, µM": 1.4}
{"molecule": "Cc1cc(C(=O)NC2CCc3cc(-c4cc(C)on4)ccc32)ccn1 (centres unmarked) [Compound 137]", "CDMF75 IC15, µM": 1.2}
{"molecule": "Cc1cc(C(=O)N[C@@H]2CCc3cc(-c4noc(C(F)F)n4)ccc32)cnn1 [Compound 687]", "CDMF75 IC15, µM": 1.0}

Record Cc1ncc(C(=O)N[C@@H]2CCc3cc(-c4noc(C(F)F)n4)ccc32)o1 [Compound 100] , field CDMF75 IC15: 0.7

Record CNC(=O)N[C@@H]1CCc2cc(-c3noc(C(F)F)n3)ccc21 [Compound 295] , field CDMF75 IC15: 4.9

Record Cc1cc(C(=O)N[C@@H]2CCc3cc(-c4cc(C(F)F)no4)ccc32)ccn1 [Compound 171] , field CDMF75 IC15: 1.7

Record COCc1nc(-c2ccc3c(c2)CC[C@H]3NC(=O)c2ocnc2C)no1 [Compound 177] , field CDMF75 IC15: 0.5

Record Cc1nc(-c2ccc3c(c2)OC[C@H]3NC(=O)c2ccnn2C)no1 [Compound 122] , field CDMF75 IC15: 0.5

###

- system_tested: bovine cardiac myofibrils (full-length cardiac myosin ATPase in the native sarcomere) (Bos taurus (Bovine))
- assay_remarks: Skinned bovine cardiac myofibril ATPase assay (PK/LDH-coupled)
- Format: biochemical
- test_conditions: Ca2+ activating to 75% of maximal rate, concentration giving 15% inhibition
parameter_measured: CDMF75 IC15
Give the value; after it, write the unit.

Past entries and their recorded results:
{"compound": "Cc1nocc1C(=O)N[C@@H]1CCc2cc(-c3noc(C(F)F)n3)ccc21", "CDMF75 IC15": "0.3 µM"}
{"compound": "CC(=O)OCCc1nc(-c2ccc3c(c2)CC[C@H]3NC(=O)c2cnn(C)c2)no1", "CDMF75 IC15": "11.8 µM"}
{"compound": "Cc1ncc(C(=O)N[C@@H]2CCc3cc(-c4nc(C(F)F)no4)ccc32)o1", "CDMF75 IC15": "3.0 µM"}
{"compound": "CCc1cc(-c2ccc3c(c2)OC[C@H]3NC(=O)c2ccnn2C)no1", "CDMF75 IC15": "0.3 µM"}
{"compound": "CCc1nc(-c2ccc3c(c2)CC[C@H]3NC(=O)c2ccnc(C(F)F)c2)no1", "CDMF75 IC15": "0.4 µM"}
{"compound": "O=C(N[C@@H]1CCc2cc(-c3noc(C4CCC4)n3)ccc21)c1cnn(CCO)c1", "CDMF75 IC15": "1.7 µM"}
{"compound": "CC(C)c1nc(-c2ccc3c(c2)CC[C@H]3NC(=O)c2cnn(C)c2)no1", "CDMF75 IC15": "1.2 µM"}

Record CCc1nc(-c2ccc3c(c2)CCCC3NC(=O)c2cnn(C)c2)no1 (centres unmarked) , field CDMF75 IC15: 4.3 µM
